tested on: Triton WR-1339-Induced Hyperlipemia Mice; assay: Effect on serum lipid in Triton WR-1339-induced hyperlipemia mice; type: in vivo, mouse (Crj:ICR-strain); settings: Mus musculus, po (3 x 33.3 mg/kg), average of 10 animals, 24 hours, read-out: % Change of Serum Lipid to Control Group: HDL Cholesterole
We begin with a simple list: items and their reported change in vivo at 100 mg/kg.
Your answer is read as %, so omit the unit and give the number.

{"compound": "CC[C@H](C)C(=O)O[C@H]1C[C@H](O)C=C2C=C[C@H](C)[C@H](CC[C@@H](O)C[C@@H](O)CC(=O)O)[C@H]21 [Pravastatin, reference compound]", "change in vivo at 100 mg/kg [%]": -8}
{"compound": "O=S(=O)(CCCOc1ccc(-n2ccnc2)cc1)c1ccccc1", "change in vivo at 100 mg/kg [%]": 82}
{"compound": "c1ccc(OCCCOc2ccc(-n3ccnc3)cc2)cc1", "change in vivo at 100 mg/kg [%]": 52}

Could you share which change in vivo at 100 mg/kg value was measured for `c1ccc(CCCOc2ccc(-n3ccnc3)cc2)cc1` ? 46

Would you mind telling me what change in vivo at 100 mg/kg value was observed for `CN(CCCc1ccccc1)c1ccc(-n2ccnc2)cc1` ? 65

What measured change in vivo at 100 mg/kg goes with `CCCCCCCCCCNc1ccc(-n2ccnc2)cc1` ? 22

Quick one: change in vivo at 100 mg/kg for `c1ccc(CCCNc2ccc(-n3ccnc3)cc2)cc1` ? 78

// change in vivo at 100 mg/kg lookup, key: `O=S(=O)(CCCOc1ccc(Cn2ccnc2)cc1)c1ccccc1` 60

// lookup change in vivo at 100 mg/kg for `c1ccc(OCCCOc2ccc(Cn3ccnc3)cc2)cc1` 28

# input compound: c1ccc(CCCCOc2ccc(Cn3ccnc3)cc2)cc1 [Compound 2-49, 1-[4-(4-phenylbutyloxy)benzyl]imidazole] ; wanted: its change in vivo at 100 mg/kg 20

Attribution: patent US5965743A
